Source of measurements: PubChem BioAssay

- assay-name: DUSP6 inhibitors restoring Erk phosphorylation by chemical complementation, primary imaging in DUSP6-transfected HeLa (AID 609)
- stated-conditions: HeLa MKP-3 transfected, phospho-Erk imaging KS statistic; measured here: nuclear c-Myc green intensity z-score; at 10 µM; cells stimulated with TPA for 15 min
Here the recorded z-score is given for each entry.
Give the figure by itself; no unit, no explanation.

Example results:
Clc1ccc(-c2cn3c(n2)CCC3)cc1	1.21
O=C1C2ON(c3ccccc3)C(c3ccncc3)C2C(=O)N1c1ccccc1 (stereo unspecified)	-1.22
CC(=O)c1ccc(O)c(CO)c1	0.525
COCCNc1oc(-c2ccc(Cl)cc2)nc1C#N	-0.285

## Task Return the recorded z-score value; entry: CCN(CC)CCN1C(=O)C(=O)/C(=C(/O)c2ccc(F)cc2)C1c1ccncc1 (stereo unspecified)
## Result 0.605

## Task Return the recorded z-score value; entry: Cc1cc(C)nc(N(C#N)CC(=O)N(c2ccccc2)C(C)C)n1
## Result -0.154
